- study-system: Voltage-gated inwardly rectifying potassium channel KCNH2 (Homo sapiens)
- Sequence (Q12809 whole entry): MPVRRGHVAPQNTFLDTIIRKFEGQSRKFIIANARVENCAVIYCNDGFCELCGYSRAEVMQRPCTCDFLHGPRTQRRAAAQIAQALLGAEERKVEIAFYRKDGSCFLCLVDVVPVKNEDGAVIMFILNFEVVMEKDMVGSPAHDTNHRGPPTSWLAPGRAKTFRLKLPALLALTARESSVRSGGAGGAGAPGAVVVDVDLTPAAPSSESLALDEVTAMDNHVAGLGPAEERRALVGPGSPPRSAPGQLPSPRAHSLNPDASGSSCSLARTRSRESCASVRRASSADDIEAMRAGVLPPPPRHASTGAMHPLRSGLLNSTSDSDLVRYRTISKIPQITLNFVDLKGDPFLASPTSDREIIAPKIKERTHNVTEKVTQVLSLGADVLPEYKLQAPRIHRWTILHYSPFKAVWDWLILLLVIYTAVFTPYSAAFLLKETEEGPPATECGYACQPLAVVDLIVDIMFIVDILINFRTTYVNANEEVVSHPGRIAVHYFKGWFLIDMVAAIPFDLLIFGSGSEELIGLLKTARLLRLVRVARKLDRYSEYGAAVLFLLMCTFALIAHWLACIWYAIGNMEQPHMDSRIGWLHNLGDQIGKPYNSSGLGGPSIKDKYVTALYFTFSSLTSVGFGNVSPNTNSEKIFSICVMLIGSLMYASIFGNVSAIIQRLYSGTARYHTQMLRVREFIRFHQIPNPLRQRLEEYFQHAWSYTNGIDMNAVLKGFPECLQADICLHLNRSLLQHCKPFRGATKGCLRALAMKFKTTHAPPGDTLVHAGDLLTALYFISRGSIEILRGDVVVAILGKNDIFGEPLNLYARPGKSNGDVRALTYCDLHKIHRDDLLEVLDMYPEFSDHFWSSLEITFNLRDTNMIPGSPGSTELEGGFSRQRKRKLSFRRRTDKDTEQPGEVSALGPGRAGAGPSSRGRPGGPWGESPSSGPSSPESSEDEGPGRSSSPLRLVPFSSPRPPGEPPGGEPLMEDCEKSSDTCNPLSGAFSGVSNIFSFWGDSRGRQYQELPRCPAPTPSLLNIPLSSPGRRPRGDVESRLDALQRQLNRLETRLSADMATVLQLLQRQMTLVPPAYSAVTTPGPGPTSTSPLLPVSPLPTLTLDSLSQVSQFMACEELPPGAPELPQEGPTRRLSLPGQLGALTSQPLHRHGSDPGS
- protocol-description: Displacement of [3H]-astemizole from human ERG expressed in HEK293 cell membranes after 1 hr by microbeta counting method
pIC50: −log10 of the molar value.
measurement-kind: pIC50

INSERT INTO results (item_smiles, measurement_kind, endpoint_result) VALUES
  ('O=C(Nc1ccc(Cl)c(Cl)c1)Nc1nccnc1OCc1ccccc1', 'pIC50', 4.95);

----------
- study-system: Peptidyl-prolyl cis-trans isomerase F, mitochondrial (Mus musculus)
- protocol-description: Blockade of amyloid beta (1 to 42)-induced cypD-mediated mPTP opening in mouse HT22 cells assessed as green to red fluorescence ratio at 5 uM preincubated for 10 mins followed by amyloid beta (1 to 42) addition measured at 1 hr time interval for 3 hrs by JC-1 staining based fluorescence assay (reference value: 100%)
- Type: cell-based
measurement-kind: Ratio

INSERT INTO results (item_smiles, study_system, endpoint_result) VALUES
  ('O=C(Nc1ccccc1)Nc1nccnc1OCc1ccccc1Cl', 'Peptidyl-prolyl cis-trans isomerase F, mitochondrial (Mus musculus)', '39%'),
  ('O=C(NCCCl)Nc1nccnc1OCc1cccc(Cl)c1', 'Peptidyl-prolyl cis-trans isomerase F, mitochondrial (Mus musculus)', '73%'),
  ('O=C(NCCCl)Nc1nccnc1OCc1ccccc1', 'Peptidyl-prolyl cis-trans isomerase F, mitochondrial (Mus musculus)', '53%'),
  ('O=C(NCCCl)Nc1nccnc1OCc1ccccc1Cl', 'Peptidyl-prolyl cis-trans isomerase F, mitochondrial (Mus musculus)', '72%'),
  ('CC(C)(C)CC(C)(C)NC(=O)Nc1nccnc1OCc1ccc(F)cc1', 'Peptidyl-prolyl cis-trans isomerase F, mitochondrial (Mus musculus)', '17%'),
  ('CN1CCN(CCNC(=O)Nc2nccnc2OCc2ccccc2Cl)CC1', 'Peptidyl-prolyl cis-trans isomerase F, mitochondrial (Mus musculus)', '34%'),
  ('O=C(Nc1cccc(Cl)c1)Nc1nccnc1OCc1ccccc1Cl', 'Peptidyl-prolyl cis-trans isomerase F, mitochondrial (Mus musculus)', '55%'),
  ('O=C(Nc1ccccc1)Nc1nccnc1OCc1cccc(F)c1', 'Peptidyl-prolyl cis-trans isomerase F, mitochondrial (Mus musculus)', '30%'),
  ('O=C(NCCN1CCNCC1)Nc1nccnc1OCc1ccccc1Cl', 'Peptidyl-prolyl cis-trans isomerase F, mitochondrial (Mus musculus)', '37%'),
  ('CN1CCN(CCNC(=O)Nc2nccnc2OCc2ccccc2)CC1', 'Peptidyl-prolyl cis-trans isomerase F, mitochondrial (Mus musculus)', '43%'),
  ('O=C(Nc1ccccc1)Nc1nccnc1OCc1ccccc1', 'Peptidyl-prolyl cis-trans isomerase F, mitochondrial (Mus musculus)', '44%'),
  ('CC(C)(C)NC(=O)Nc1nccnc1OCc1ccccc1Cl', 'Peptidyl-prolyl cis-trans isomerase F, mitochondrial (Mus musculus)', '28%'),
  ('O=C(Nc1cccc(Cl)c1)Nc1nccnc1OCc1cccc(F)c1', 'Peptidyl-prolyl cis-trans isomerase F, mitochondrial (Mus musculus)', '39%'),
  ('O=C(Nc1nccnc1OCc1ccccc1)NC1CCCCCC1', 'Peptidyl-prolyl cis-trans isomerase F, mitochondrial (Mus musculus)', '33%'),
  ('CN1CCN(CCNC(=O)Nc2nccnc2OCc2cccc(Cl)c2)CC1', 'Peptidyl-prolyl cis-trans isomerase F, mitochondrial (Mus musculus)', '34%'),
  ('CC(C)(C)CC(C)(C)NC(=O)Nc1nccnc1OCc1ccc(Cl)cc1', 'Peptidyl-prolyl cis-trans isomerase F, mitochondrial (Mus musculus)', '35%'),
  ('O=C(Nc1cccc(F)c1)Nc1nccnc1OCc1cccc(Cl)c1', 'Peptidyl-prolyl cis-trans isomerase F, mitochondrial (Mus musculus)', '50%'),
  ('CC(C)(C)CC(C)(C)NC(=O)Nc1nccnc1OCc1cccc(F)c1', 'Peptidyl-prolyl cis-trans isomerase F, mitochondrial (Mus musculus)', '29%'),
  ('O=C(NCc1ccccc1)Nc1nccnc1OCc1ccccc1Cl', 'Peptidyl-prolyl cis-trans isomerase F, mitochondrial (Mus musculus)', '33%'),
  ('CC(C)(C)NC(=O)Nc1nccnc1OCc1cccc(F)c1', 'Peptidyl-prolyl cis-trans isomerase F, mitochondrial (Mus musculus)', '55%'),
  ('CC(C)(C)CC(C)(C)NC(=O)Nc1nccnc1OCc1ccccc1Cl', 'Peptidyl-prolyl cis-trans isomerase F, mitochondrial (Mus musculus)', '59%'),
  ('CC(C)(C)CC(C)(C)NC(=O)Nc1nccnc1OCc1ccccc1', 'Peptidyl-prolyl cis-trans isomerase F, mitochondrial (Mus musculus)', '25%'),
  ('O=C(Nc1cccc(Cl)c1)Nc1nccnc1OCc1cccc(Cl)c1', 'Peptidyl-prolyl cis-trans isomerase F, mitochondrial (Mus musculus)', '29%'),
  ('CC(C)(C)NC(=O)Nc1nccnc1OCc1ccccc1', 'Peptidyl-prolyl cis-trans isomerase F, mitochondrial (Mus musculus)', '51%'),
  ('O=C(Nc1ccc(Cl)c(Cl)c1)Nc1nccnc1OCc1ccccc1', 'Peptidyl-prolyl cis-trans isomerase F, mitochondrial (Mus musculus)', '29%'),
  ('O=C(Nc1ccccc1)Nc1nccnc1OCc1cccc(Cl)c1', 'Peptidyl-prolyl cis-trans isomerase F, mitochondrial (Mus musculus)', '59%'),
  ('CCNC(=O)Nc1nccnc1OCc1cccc(Cl)c1', 'Peptidyl-prolyl cis-trans isomerase F, mitochondrial (Mus musculus)', '60%'),
  ('O=C(Nc1nccnc1OCc1ccc(Cl)cc1)Nc1cccc2ccccc12', 'Peptidyl-prolyl cis-trans isomerase F, mitochondrial (Mus musculus)', '60%');
